Reported %Inh by item:
tested on: SRMS; conditions: concentration: 1 μM, replicates: in singlicate; n = 1;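 also: KINOMEscan kinase panel screen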
Endpoint: %Inh

• Cc1ccc(-c2nc(Nc3ccncc3)c3ccccc3n2)s1 = 3%
• CCn1c(-c2c(N)noc2C)nc2cnccc21 = 0%
• CC(=O)c1c(C)c2cnc(Nc3ccc(N4CCNCC4)cn3)nc2n(C2CCCC2)c1=O = 0%
• CSc1ccc(-c2nc3n(c2-c2ccncc2)CCC3)cc1 = 13%
• Cc1ccc(NC(=O)Nc2ccccc2)cc1-c1ccc(C(=O)Nc2ccncc2)cc1 = 0%
• Nc1ncnc2occ(-c3ccc4c(c3)CCN4C(=O)Cc3cc(F)ccc3F)c12 = 0%
• Fc1ccc(-c2nc[nH]c2-c2ccncc2)cc1 = 34%
• Cc1c(Cn2c3ccccc3n3c(=O)cc(N4CCOCC4)nc23)cccc1C(F)(F)F = 0%
• COc1ccc2cc(-c3nc(-c4ccccc4C(C)C)[nH]c3-c3ccncc3)ccc2c1 = 0%

###

tested on: NEK10; settings: concentration: 1 μM, replicates: in singlicate; n = 1
Reported %Inh by item:
Endpoint: %Inh (%)

- CN1c2ccc(-c3ccc(C(N)=O)cc3)cc2-c2[nH]ncc2S1(=O)=O: 0
- COc1cccc(NC(=O)Nc2ccc(C)c(-c3ccc(C(=O)Nc4ccncc4)cc3)c2)c1: 47
- O=C(Nc1n[nH]c2nc(-c3ccco3)c(Br)cc12)C1CCN(Cc2ccccc2)C1.O=C(O)[C@H](O)[C@@H](O)C(=O)O (stereo not drawn): 0
- CNc1cc(-c2ccc3c(N)n[nH]c3c2)nc(N)n1: 0
- CCCCc1nn2ncccc2c1-c1ccnc(NC2CC2)n1: 0
- FC(F)(F)c1ccccc1-c1cc(-c2c[nH]nc2-c2ccccn2)ccn1: 9
- COc1ccc(Nc2nccc(N3CCC(NC(=O)c4cc5ccccc5s4)C3)n2)cc1 (stereo not drawn): 16
- CNc1nc(-c2ccc3c(N)n[nH]c3c2)cc(N2C[C@@H](C(=O)NC3CCCCC3)OC[C@H]2C)n1: 9
- COc1ccc(Nc2nccc(NCCNC(=O)Nc3cc(C)ccc3C)n2)cc1: 2
- CC(C)c1cc(-c2ccc3c(N)n[nH]c3c2)nc(N)n1: 8
- Cc1c(Cn2c(C)c(C)n3c(=O)cc(N4CCOCC4)nc23)cccc1C(F)(F)F: 0
- COc1ccc(CSc2nnc(-c3ccc4c(c3)CCO4)o2)cc1: 0
- CS(=O)(=O)CCNCc1nc(-c2ccc3ncnc(Nc4ccc5c(cnn5Cc5ccccc5)c4)c3c2)cs1.Cl.Cl: 16
- c1ccc(-c2ccnc3[nH]ccc23)cc1: 30
- CC(C)c1ccc(O)cc1Nc1ccnc2ccc(C(F)(F)F)cc12: 0
- Cc1ccc(NC(=O)Nc2ccc(Cl)c(C(F)(F)F)c2)cc1-c1ccc(C(=O)Nc2ccncc2)cc1: 2
- Fc1ccc(-c2nc[nH]c2-c2ccncc2)cc1: 24
- COc1ccc(Nc2nccc(N3CCC(NC(=O)C(C)c4ccc(Cl)cc4)C3)n2)cc1 (stereo not drawn): 7

###

system: PRP4; conditions: concentration: 1 μM, replicates: in singlicate; n = 1
Endpoint: %Inh (%)

* Fc1ccc(-c2nc3n(c2-c2ccncc2)CCS3)cc1 | 0
* Cc1cnc(N)c(/C=C/c2cncc(C(=O)NCCc3ccc(Cl)cc3Cl)c2)c1.Cl | 6
* O=c1cc(N2CCOCC2)nc2n(Cc3ccccc3F)ccn12 | 7
* CC(=O)c1c(C)c2cnc(Nc3ccc(N4CCNCC4)cn3)nc2n(C2CCCC2)c1=O | 0
* Nc1ncnc2occ(-c3ccc4c(c3)CCN4C(=O)Cc3cc(F)ccc3F)c12 | 25

Value source: paper PMC5540273
